target: cysteines in MDA-MB-231 and Ramos cells (Homo sapiens); test: Competitive isoTOP-ABPP in situ (fragment-treated cells); assay type: cell-based; conditions: 200 μM, insitu, 231
Sequence (Q16831 whole entry, the tested form may be a part): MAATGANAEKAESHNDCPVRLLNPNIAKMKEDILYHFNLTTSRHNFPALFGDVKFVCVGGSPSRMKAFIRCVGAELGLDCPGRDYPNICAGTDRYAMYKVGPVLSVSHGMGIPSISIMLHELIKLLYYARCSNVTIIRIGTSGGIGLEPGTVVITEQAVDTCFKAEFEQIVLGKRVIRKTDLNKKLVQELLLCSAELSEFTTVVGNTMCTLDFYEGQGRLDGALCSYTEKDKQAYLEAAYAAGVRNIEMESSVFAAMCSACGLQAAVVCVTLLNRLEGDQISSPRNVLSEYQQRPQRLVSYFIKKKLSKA
Quick rule for you: isoTOP-ABPP ratio Q16831_C162 under 1 gets y, anything else gets n.

• COc1ccccc1OCCNC(=O)CCl = y
• O=C(CCl)NC12CC3CC(CC(C3)C1)C2 = n
• CC(C)CCOCCNC(=O)CCl = y
• Cc1ccc(C=C(C#N)C(=O)NCCN2CCOCC2)cc1 = y
• CC1CCc2ccccc2N1C(=O)CCl (stereo not shown) = n
• O=C(CCl)NC(=O)NC12CC3CC(CC(C3)C1)C2 = y
• O=C(CCl)Nc1cccc2ncccc12 = n
• O=C(CCl)N1CCN(S(=O)(=O)c2ccccc2F)CC1 = n
• C=CC(=O)Nc1cc(F)c(N2CCN(C(=O)OC(C)(C)C)CC2)c(F)c1 = n
